# Test system: RXRa DBDmut IVT, anti-RXR (DBD mutation: RXRa K156A/R161A, NR concentration 90 nM)
# PROTOCOL NOTES: PBM binding z-score (relative to random genomic background probes); higher = stronger binding; sequences stand for … in GC…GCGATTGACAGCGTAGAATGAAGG
OUTCOME MEASURE: PBM binding z-score
Number, no unit, nothing else.

Answered cases to consult:
residue_string=GCAGACAGGTAAAACGCAGGTAACTCAGGGTGGC reported_value=-0.576
residue_string=TCTCGTAGATCAAGCAGGTTAAGAAAGCCTGAGT reported_value=0.598

Ask: Return PBM binding z-score for the following sequence: TCATATACGTAAATGCTAGGTGAAAGTCCGATCT
Reply: 1.77

Ask: Could you please provide reported PBM binding z-score for CGAACTAGGTCAACCAGGACAGTGAATACATTGA ? Thanks!
Reply: 1.8

Ask: Note PBM binding z-score for the sequence shown: CCTACTGGGCCGTCAGGTCATTGATATCAACGTT
Reply: 0.28

Ask: Specify PBM binding z-score for TGAATGAGGTTAAAGAACAGGGAACGTGGCGTCG and stop.
Reply: 1.33

Ask: State, in one line, measured PBM binding z-score of GCTTACGGGTCTAAGGTTATAGCATGAATAGAAT
Reply: 1.27

Ask: Provide one value: measured PBM binding z-score of AGAATGAGGTTACCAAACATCAGGGAAACGCTTG
Reply: 1.15
